tested on: NCI-H719 tumor spheroids, viability; assay: Anticancer human tumor NCI-H719 cell line growth inhibition; details: second compound 0.000949 µM; first compound 0.1 µM; stronger effect = lower value; spheroids with HUVEC and MSC;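 note: spheroids exposed to compounds for seven days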;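 for viability, T/C: percent viability relative to DMSO vehicle control as 100%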
Readout Kind: viability, T/C (%)

INSERT INTO assay_data (molecule, tgt, readout_kind, measurement) VALUES
  ('CC1COCCN1c1cc(-c2ccnn2C)c2ccnc(-c3ccn[nH]3)c2n1 (configuration not stated) + COc1cc2c(cc1O)CCNC21CSC2c3c(OC(C)=O)c(C)c4c(c3C(COC1=O)N1C(O)C3Cc5cc(C)c(OC)c(O)c5C(C21)N3C)OCO4', 'NCI-H719 tumor spheroids, viability', 'viability, T/C', 7.35),
  ('COc1ccc([C@@H](O)c2cc(-c3ncnc4cc(N5CCOCC5)ccc34)c(F)cc2Cl)nn1 + COc1cc2c(cc1O)CCNC21CSC2c3c(OC(C)=O)c(C)c4c(c3C(COC1=O)N1C(O)C3Cc5cc(C)c(OC)c(O)c5C(C21)N3C)OCO4', 'NCI-H719 tumor spheroids, viability', 'viability, T/C', 8.3);

----------
tested on: NCI-H719 tumor spheroids, viability; assay: Anticancer human tumor NCI-H719 cell line growth inhibition; conditions: second compound 0.00949 µM; first compound 0.0316 µM; spheroids with HUVEC and MSC; active = viability on the fitted dose curve at most 10% of control; inactive = the rest;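 note: spheroids exposed to compounds for seven days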
Outcomes: t for active, f for inactive

INSERT INTO measurements (molecule, tgt, class_name) VALUES
  ('Cc1cc(C)c(CNC(=O)c2cc(-c3ccc(CN4CCOCC4)cc3)cc3c2cnn3C2CCCC2)c(=O)[nH]1 + CC[C@@]1(O)C(=O)OCc2c1cc1n(c2=O)Cc2cc3c(CN(C)C)c(O)ccc3nc2-1', 'NCI-H719 tumor spheroids, viability', 't'),
  ('CC(C)n1c(=O)n(C)c2cnc3cc(F)c(-c4ccc(OCCCN5CCCCC5)nc4)cc3c21 + CC[C@@]1(O)C(=O)OCc2c1cc1n(c2=O)Cc2cc3c(CN(C)C)c(O)ccc3nc2-1', 'NCI-H719 tumor spheroids, viability', 'f'),
  ('COc1cc(C)[nH]c(=O)c1CN1CCc2c(Cl)cc(C(OC)C3COC3)c(Cl)c2C1=O (stereo not drawn) + CC[C@@]1(O)C(=O)OCc2c1cc1n(c2=O)Cc2cc3c(CN(C)C)c(O)ccc3nc2-1', 'NCI-H719 tumor spheroids, viability', 'f');

----------
tested on: NCI-H719 tumor spheroids, viability; test: Anticancer human tumor NCI-H719 cell line growth inhibition; settings: curve of first compound; second compound 0.0003 µM; spheroids with HUVEC and MSC;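 note: spheroids exposed to compounds for seven days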
# IC50 annotations
Readout Kind: IC50

INSERT INTO results (compound, tgt, measurement) VALUES
  ('[2H]c1nc(C)nc([2H])c1-c1cc(NC[C@@H](C)c2cccc3c(C(=O)NC)ccnc23)ncn1 + COc1cc2c(cc1O)CCNC21CSC2c3c(OC(C)=O)c(C)c4c(c3C(COC1=O)N1C(O)C3Cc5cc(C)c(OC)c(O)c5C(C21)N3C)OCO4', 'NCI-H719 tumor spheroids, viability', '< 31.6 nM'),
  ('CC(C)n1c(=O)n(C)c2cnc3cc(F)c(-c4ccc(OCCCN5CCCCC5)nc4)cc3c21 + COc1cc2c(cc1O)CCNC21CSC2c3c(OC(C)=O)c(C)c4c(c3C(COC1=O)N1C(O)C3Cc5cc(C)c(OC)c(O)c5C(C21)N3C)OCO4', 'NCI-H719 tumor spheroids, viability', '< 31.6 nM'),
  ('Cn1ncnc1[C@H]1c2n[nH]c(=O)c3cc(F)cc(c23)N[C@@H]1c1ccc(F)cc1 + COc1cc2c(cc1O)CCNC21CSC2c3c(OC(C)=O)c(C)c4c(c3C(COC1=O)N1C(O)C3Cc5cc(C)c(OC)c(O)c5C(C21)N3C)OCO4', 'NCI-H719 tumor spheroids, viability', '< 9.49 nM'),
  ('CC1COCCN1c1cc(-c2ccnn2C)c2ccnc(-c3ccn[nH]3)c2n1 (centres undefined) + COc1cc2c(cc1O)CCNC21CSC2c3c(OC(C)=O)c(C)c4c(c3C(COC1=O)N1C(O)C3Cc5cc(C)c(OC)c(O)c5C(C21)N3C)OCO4', 'NCI-H719 tumor spheroids, viability', '< 31.6 nM');

----------
# IC50 annotations
tested on: NCI-H719 tumor spheroids, viability; assay: Anticancer human tumor NCI-H719 cell line growth inhibition; conditions: curve of first compound; second compound 31.6 µM; spheroids with HUVEC and MSC;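 note: spheroids exposed to compounds for seven days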
Readout Kind: IC50 (nM)

INSERT INTO assay_data (compound, u, value_prefix, measurement) VALUES
  ('CC1COCCN1c1cc(-c2ccnn2C)c2ccnc(-c3ccn[nH]3)c2n1 (stereo not given) + Cn1nnc2c(C(N)=O)ncn2c1=O', 'nM', '=', 38.9),
  ('COc1cc(C)[nH]c(=O)c1CN1CCc2c(Cl)cc(C(OC)C3COC3)c(Cl)c2C1=O (stereo not given) + Cn1nnc2c(C(N)=O)ncn2c1=O', 'nM', '>', 10000),
  ('CC(C)n1c(=O)n(C)c2cnc3cc(F)c(-c4ccc(OCCCN5CCCCC5)nc4)cc3c21 + Cn1nnc2c(C(N)=O)ncn2c1=O', 'nM', '>', 10000),
  ('CNCc1ccc(-c2cc(-c3nc(-c4ccc(S(=O)(=O)C(C)C)cc4)cnc3N)on2)cc1 + Cn1nnc2c(C(N)=O)ncn2c1=O', 'nM', '=', 94.4),
  ('COc1ccc([C@@H](O)c2cc(-c3ncnc4cc(N5CCOCC5)ccc34)c(F)cc2Cl)nn1 + Cn1nnc2c(C(N)=O)ncn2c1=O', 'nM', '=', 810),
  ('O=C(c1cc(Cc2n[nH]c(=O)c3ccccc23)ccc1F)N1CCN(C(=O)C2CC2)CC1 + Cn1nnc2c(C(N)=O)ncn2c1=O', 'nM', '<', 94.9),
  ('Cc1cc(C)c(CNC(=O)c2cc(-c3ccc(CN4CCOCC4)cc3)cc3c2cnn3C2CCCC2)c(=O)[nH]1 + Cn1nnc2c(C(N)=O)ncn2c1=O', 'nM', '>', 10000),
  ('[2H]c1nc(C)nc([2H])c1-c1cc(NC[C@@H](C)c2cccc3c(C(=O)NC)ccnc23)ncn1 + Cn1nnc2c(C(N)=O)ncn2c1=O', 'nM', '>', 10000),
  ('Cc1sc2c(c1C)C(c1ccc(Cl)cc1)=NC(CC(=O)Nc1ccc(O)cc1)c1nnc(C)n1-2 (stereo not given) + Cn1nnc2c(C(N)=O)ncn2c1=O', 'nM', '=', 71),
  ('Cn1ncnc1[C@H]1c2n[nH]c(=O)c3cc(F)cc(c23)N[C@@H]1c1ccc(F)cc1 + Cn1nnc2c(C(N)=O)ncn2c1=O', 'nM', '<', 9.49);

----------
system: NCI-H719 tumor spheroids, viability; assay: Anticancer human tumor NCI-H719 cell line growth inhibition; conditions: second compound 0.03 µM; first compound 3 µM; stronger effect = lower value; spheroids with HUVEC and MSC;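 note: spheroids exposed to compounds for seven days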;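 for viability, T/C: percent viability relative to DMSO vehicle control as 100%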
Readout Kind: viability, T/C

INSERT INTO results (molecule, readout_kind, measurement) VALUES
  ('O=C(c1cc(Cc2n[nH]c(=O)c3ccccc23)ccc1F)N1CCN(C(=O)C2CC2)CC1 + CC[C@@]1(O)C(=O)OCc2c1cc1n(c2=O)Cc2cc3c(CN(C)C)c(O)ccc3nc2-1', 'viability, T/C', '5.5%'),
  ('CNCc1ccc(-c2cc(-c3nc(-c4ccc(S(=O)(=O)C(C)C)cc4)cnc3N)on2)cc1 + CC[C@@]1(O)C(=O)OCc2c1cc1n(c2=O)Cc2cc3c(CN(C)C)c(O)ccc3nc2-1', 'viability, T/C', '0.1%'),
  ('Cc1sc2c(c1C)C(c1ccc(Cl)cc1)=NC(CC(=O)Nc1ccc(O)cc1)c1nnc(C)n1-2 (centres undefined) + CC[C@@]1(O)C(=O)OCc2c1cc1n(c2=O)Cc2cc3c(CN(C)C)c(O)ccc3nc2-1', 'viability, T/C', '1.87%'),
  ('Cn1ncnc1[C@H]1c2n[nH]c(=O)c3cc(F)cc(c23)N[C@@H]1c1ccc(F)cc1 + CC[C@@]1(O)C(=O)OCc2c1cc1n(c2=O)Cc2cc3c(CN(C)C)c(O)ccc3nc2-1', 'viability, T/C', '6.6%');

----------
# viability, T/C annotations
tested on: NCI-H719 tumor spheroids, viability; test: Anticancer human tumor NCI-H719 cell line growth inhibition; conditions: second compound 94.9 pM; first compound 0.3 µM; stronger effect = lower value; spheroids with HUVEC and MSC;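 note: spheroids exposed to compounds for seven days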;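 for viability, T/C: percent viability relative to DMSO vehicle control as 100%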
Readout Kind: viability, T/C (%)

INSERT INTO results (compound, measurement) VALUES
  ('Cc1sc2c(c1C)C(c1ccc(Cl)cc1)=NC(CC(=O)Nc1ccc(O)cc1)c1nnc(C)n1-2 (centres undefined) + COc1cc2c(cc1O)CCNC21CSC2c3c(OC(C)=O)c(C)c4c(c3C(COC1=O)N1C(O)C3Cc5cc(C)c(OC)c(O)c5C(C21)N3C)OCO4', 7.23),
  ('O=C(c1cc(Cc2n[nH]c(=O)c3ccccc23)ccc1F)N1CCN(C(=O)C2CC2)CC1 + COc1cc2c(cc1O)CCNC21CSC2c3c(OC(C)=O)c(C)c4c(c3C(COC1=O)N1C(O)C3Cc5cc(C)c(OC)c(O)c5C(C21)N3C)OCO4', 13.7),
  ('CNCc1ccc(-c2cc(-c3nc(-c4ccc(S(=O)(=O)C(C)C)cc4)cnc3N)on2)cc1 + COc1cc2c(cc1O)CCNC21CSC2c3c(OC(C)=O)c(C)c4c(c3C(COC1=O)N1C(O)C3Cc5cc(C)c(OC)c(O)c5C(C21)N3C)OCO4', 8.3),
  ('Cn1ncnc1[C@H]1c2n[nH]c(=O)c3cc(F)cc(c23)N[C@@H]1c1ccc(F)cc1 + COc1cc2c(cc1O)CCNC21CSC2c3c(OC(C)=O)c(C)c4c(c3C(COC1=O)N1C(O)C3Cc5cc(C)c(OC)c(O)c5C(C21)N3C)OCO4', 7.47);

Origin of the recorded values: PubChem BioAssay AID1845212
